# credit: ChEMBL document CHEMBL1201862

Test system: K562
Experiment: NCI tumour cell line growth inhibition, 48 h
Activity calls are given as the source filed them. Rule as the data show it: active = GI50 up to about 1.1 µM and inactive = higher.
Please reply with one of these outcomes: class 1 for active, class 0 for inactive

O=C(O)COc1c(Cl)cc(Cl)c(C(c2c(Cl)cc(Cl)c(OCC(=O)O)c2Cl)C(Cl)(Cl)Cl)c1Cl	class 0

Given CCOc1ccc(NCC2CC/C(=C\c3ccc(O)cc3)C2=O)cc1 (stereo not given) , state the outcome it received in this test. class 0

Same thing, different molecule: NNc1nncn1N class 0

Same thing, different molecule: O=C(CC1(O)C(=O)Nc2c(Cl)cccc21)c1ccccc1 (stereo not given) class 0

Same thing, different molecule: CN1CCN(CCCCN2c3ccccc3Sc3cc(N=[N+]=[N-])ccc32)CC1 class 0

Same thing, different molecule: Cc1cc(/N=N/c2ccc(/N=N/c3c(O)c(S(=O)(=O)O)cc4cc(S(=O)(=O)O)ccc34)cc2C)ccc1/N=N/c1ccc2cc(S(=O)(=O)O)cc(S(=O)(=O)O)c2c1 class 0

Same thing, different molecule: C=C(CCOC)CCC1CCCCC(=C)[C@H]1OC(C)=O (stereo not given in full) class 0

* * *

System: M14
Experiment: NCI tumour cell line growth inhibition, 48 h
Active and inactive are the calls of the source. Cut-off read from the data, not from the text of the source: active = GI50 up to about 1.1 µM and inactive = higher.
// reported GI50 for each item listed

Fill blank: measured GI50 of the molecule CC1(C)N=C(N)N=C(N)N1c1cccc(OCc2cccc([N+](=O)[O-])c2)c1 is ____. 51.8 µM (inactive)

Same thing, different molecule: CCC(=O)/C(=C\I)c1ccccc1 2.28 µM (inactive)

Same thing, different molecule: O=C1c2ccccc2C(=O)N1CCn1ccc(NC(c2ccccc2)(c2ccccc2)c2ccccc2)nc1=O 22 µM (inactive)

Same thing, different molecule: C[C@@H](CC(O)C1OC1(C)C)[C@@H]1CC[C@]2(C)C3=CCC4C(C)(C)C(O)CC[C@]4(C)C3CCC12C (stereo not given in full) 13.9 µM (inactive)

Same thing, different molecule: CC(SC(=S)N1CCOCC1)C(=O)Nc1nnc(-c2ccccc2)o1 (stereo not given) > 100 µM (inactive)

Same thing, different molecule: CCCCS(=O)(=O)CCC(N)P(=O)(O)O (stereo not given) > 100 µM (inactive)

Same thing, different molecule: Cc1nnc2n1N=C(c1cc(F)c(Cl)cc1Cl)/C(=C/c1ccc(Cl)cc1)S2 17.9 µM (inactive)

Same thing, different molecule: Cc1nc(N)c(N2CCN(S(=O)(=O)N(Cc3ccccc3)Cc3ccccc3)CC2)c(O)n1 28.5 µM (inactive)

Same thing, different molecule: CC1=NN2C(c3ccc([N+](=O)[O-])cc3)=CSC2=NC(C)(C)C1 > 100 µM (inactive)

Same thing, different molecule: CN(C)CCC(/C=C/c1ccccc1)=N\Nc1ccccc1 2.72 µM (inactive)

* * *

System: OVCAR-4
Experiment: NCI tumour cell line growth inhibition, 48 h
Calls of active or inactive are those of the source. No stated cut-off is given here; in the data, active = GI50 up to about 1.1 µM and inactive = higher.
// reported GI50 for each item listed

Record excerpt, results attached:
Cc1c(/C=N/NC(=S)Nc2ccccc2)c(=O)n(-c2ccccc2)n1C	> 100 µM (inactive)
CC(C)=CCc1c2c(c3occ(-c4ccc(O)c(O)c4)c(=O)c3c1O)C=CC(C)(C)O2	1.59 µM (inactive)
CC1=C(C(=O)Nc2ccccc2)C(c2ccccc2Cl)C(C(=O)Nc2ccccc2)=C(C)N1	36.4 µM (inactive)
Cc1cc(C2CC(O)C(CO)O2)c(F)cc1F (stereo unspecified)	> 100 µM (inactive)
COC(=O)c1ccc(C)cc1C1CN=NC12Cc1cc(C)c(C)cc1C2=O (stereo unspecified)	> 100 µM (inactive)

Fill blank: measured GI50 of the molecule COc1ccc(NC(=O)C/C(C)=N\N=C(N)N)c([N+](=O)[O-])c1 is ____. > 100 µM (inactive)

Same thing, different molecule: O=C1C(=O)N(c2ccc(Cl)cc2)C(=O)C(=O)C1c1nc2ccccc2o1 > 100 µM (inactive)

Same thing, different molecule: N#Cc1nn(C(N)=O)c(N)c1C#N > 100 µM (inactive)

Same thing, different molecule: c1ccc2c(c1)SC(=C1Sc3ccccc3S1)S2 > 100 µM (inactive)

Same thing, different molecule: CC1OC(OP(=O)(OCc2ccccc2)OCc2ccccc2)C(OC(=O)c2ccccc2)C(OC(=O)c2ccccc2)C1I (stereo unspecified) 60.1 µM (inactive)

Same thing, different molecule: CN(C)CC1CCC/C1=N/OC(=O)c1ccccc1 (stereo unspecified) > 100 µM (inactive)

* * *

Test system: HCT-15
Assay: NCI tumour cell line growth inhibition, 48 h
ENDPOINT: GI50 (µM)
// units = µM; emit number, no label

CCCCCCCCCCCCCCCCCc1cccc(OCOCCOC)c1C(=O)O	19.3
Cc1cc(-c2nc3ccccc3s2)ccc1NC(=O)[C@H](C)N	14.1
O=C(c1ccccc1)c1nc2ccc(Cl)cc2cc1C(Br)Br	0.31
O=C1O[C@H]2[C@@H]3OC(=O)c4cc(O)c(O)c(O)c4-c4c(cc(O)c(O)c4O)C(=O)OC[C@H]2O[C@@H](OC(=O)c2cc(O)c(O)c(O)c2)[C@@H]3OC(=O)c2cc(O)c(O)c3c2[C@@H]2C1=CC(=O)C(O)(O)C2(O)O3 (stereo partly drawn)	21.9

Fill blank: measured GI50 of the compound COC(=O)c1ccc(C)cc1C1CN=NC12Cc1cc(C)c(C)cc1C2=O (stereo not drawn) is ____. 48.1

Same thing, different compound: Cc1ccc(S(=O)(=O)N/N=C/C2(c3ccccc3)c3ccccc3-c3ccccc32)cc1 9.27

* * *

System: OVCAR-4
Assay: NCI tumour cell line growth inhibition, 48 h
Active and inactive are the calls of the source. Cut-off read from the data, not from the text of the source: active = GI50 up to about 1.1 µM and inactive = higher.
// reported GI50 for each item listed

Record excerpt, results attached:
Fc1cccc2nc(-c3ccccc3)cc(OCc3ccccc3)c12	> 100 µM (inactive)
NNC(=O)CSc1nc2ccccc2c(=O)n1N	> 100 µM (inactive)
COC(=O)Cc1c(C2C(CC(=O)OC)c3ccccc3N2C2OC(CO)C(O)C(O)C2O)[nH]c2ccccc12 (stereo not given)	> 100 µM (inactive)
Cc1ccc2c(c1)SC1=Nc3sc4cc(C)ccc4[n+]3CN12	2.51 µM (inactive)

Please examine the following record next.
Fill blank: measured GI50 of the compound CCCCCCCCCCCCCCCCCCOCC(O)COP(=O)(O)OCC1OC(n2cc(F)c(=O)[nH]c2=O)CC1O (stereo not given) is ____. 15.1 µM (inactive)

* * *

System: SK-MEL-28
Experiment: NCI tumour cell line growth inhibition, 48 h
Active and inactive are the calls of the source. Rule as the data show it: active = GI50 up to about 1.1 µM and inactive = higher.
ENDPOINT: GI50

Fill blank: measured GI50 of the compound CC(=O)O[C@H]1CC[C@@]2(C)C(=CC[C@@H]3[C@@H]2CC[C@]2(C)C(=N/O)/C(=C/c4ccc([N+](=O)[O-])cc4)C[C@@H]32)C1 is ____. 11 µM (inactive)

Same thing, different compound: COc1ccc(CC2C3=C(CCCC3)CCN2C)cc1 (stereo unspecified) > 100 µM (inactive)

Same thing, different compound: N#CC12CC(C=O)=C(N)C1(C#N)CC(C=O)=C2N (stereo unspecified) 38.5 µM (inactive)

Same thing, different compound: Cc1nc(N)c(-c2ccccc2)s1 > 100 µM (inactive)

Same thing, different compound: CCC(=O)/C(=C\I)c1ccccc1 2.7 µM (inactive)

* * *

Tested on: TK-10
Assay: NCI tumour cell line growth inhibition, 48 h
Activity calls are given as the source filed them. No stated cut-off is given here; in the data, active = GI50 up to about 1.1 µM and inactive = higher.
Please reply with one of these outcomes: class 1 for active, class 0 for inactive

CC1=C(N2CC2)C(=O)C(CO)=C(N2CC2)C1=O	class 1

Given CC/C=C\C/C=C\C/C=C\CCCCCCCC(=O)OC(COC(=O)CCCCCCCCCCCCCCCCC)COC1OC(CO)C(O)C(O)C1O (stereo not given) , state the outcome it received in this test. class 0

Same thing, different compound: CCOc1ccc(OCC)c([P+](c2ccccc2)(c2ccccc2)c2ccccc2)c1 class 1

Same thing, different compound: CCOC(=O)C(Cc1cn(C(C)=O)c2ccccc12)P(=O)(OCC)OCC (stereo not given) class 0

Same thing, different compound: COc1ccc(S(=O)(=O)N[C@H](C(=O)O)c2ccccc2)cc1 class 0

Same thing, different compound: COc1cc(C2SCC(=O)N2c2ccc(-c3ccc(-n4c(-c5ccccc5)nc5ccccc5c4=O)cc3)cc2)ccc1O (stereo not given) class 0

Same thing, different compound: CC(=O)Nc1ncc(Sc2ccccc2C(=O)O)s1 class 0

Same thing, different compound: CC1(C)OC(C(=O)Nc2cc3c4ccccc4ccc3c3ccccc23)C(C(=O)N2CCCCC2)O1 (stereo not given) class 0

Same thing, different compound: CN/C=C(\C(=O)c1ccc(OC)c(OC)c1)c1ccc(OC)cc1 class 0

Same thing, different compound: COc1cc(C[S+]2CCCC2)c(SC)cc1C[S+]1CCCC1 class 0

* * *

Test system: HCT-15
ENDPOINT: GI50 (µM)
// units = µM; emit number, no label

Record excerpt, results attached:
Cc1cc(C)c(-c2noc(-c3ccc(Cl)cc3)c2C2=NCCN2)c(C)c1	22.2
Cc1c2cccc(Sc3ccccc3)c2c2c3c(cccc13)[S+](c1ccccc1)C2 (stereo unspecified)	10.4

Please examine the following record next.
Can you look up GI50 on HCT-15 for O=C1CNc2cc(N3CCN(c4cccc(C(F)(F)F)c4)CC3)ccc2N1 ? 38.9
